target: RAC-alpha serine/threonine-protein kinase (Homo sapiens) (UniProt P31749); test: Inhibition of human Protein kinase B alpha at 30 uM
Sequence (P31749 whole entry): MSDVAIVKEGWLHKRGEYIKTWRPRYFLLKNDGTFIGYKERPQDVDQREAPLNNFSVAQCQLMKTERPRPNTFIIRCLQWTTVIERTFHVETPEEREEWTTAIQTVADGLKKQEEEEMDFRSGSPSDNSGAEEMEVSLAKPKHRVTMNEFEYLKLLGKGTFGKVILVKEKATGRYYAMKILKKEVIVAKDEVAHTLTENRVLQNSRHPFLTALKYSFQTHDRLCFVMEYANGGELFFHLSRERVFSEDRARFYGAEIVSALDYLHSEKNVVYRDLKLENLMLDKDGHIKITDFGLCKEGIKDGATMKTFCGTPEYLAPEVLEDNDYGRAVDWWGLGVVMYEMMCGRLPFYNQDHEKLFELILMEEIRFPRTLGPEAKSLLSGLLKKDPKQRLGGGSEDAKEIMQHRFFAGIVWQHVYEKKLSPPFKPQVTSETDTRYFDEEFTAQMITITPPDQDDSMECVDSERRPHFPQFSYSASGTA
inhibition by entry:
Output spec: scalar in %, unitless text.

// worked examples, inhibition included
compound: c1ccc(CSc2ncnc3[nH]cnc23)cc1
study-target: RAC-alpha serine/threonine-protein kinase (Homo sapiens) (UniProt P31749)
u: %
inhibition: 4

compound: Fc1ccc(Sc2ncnc3[nH]cnc23)cc1
study-target: RAC-alpha serine/threonine-protein kinase (Homo sapiens) (UniProt P31749)
u: %
inhibition: 0

compound: Fc1ccc(Oc2[nH]cnc3ncnc2-3)cc1
study-target: RAC-alpha serine/threonine-protein kinase (Homo sapiens) (UniProt P31749)
u: %
inhibition: 0

compound: CSc1ccc(-c2nc3c(Sc4ccccc4)ncnc3n2C)cc1
study-target: RAC-alpha serine/threonine-protein kinase (Homo sapiens) (UniProt P31749)
u: %
inhibition: 5

compound: c1ccc(Nc2ncnc3[nH]cnc23)cc1
study-target: RAC-alpha serine/threonine-protein kinase (Homo sapiens) (UniProt P31749)
u: %
inhibition: 14

Q) Provide only the value of recorded inhibition for Cn1cnc2c(-c3ccc(F)cc3)ncnc21
A) 0

Q) Determine from records and report inhibition for Clc1ncnc2ncn(Cc3ccccc3)c12
A) 0

Q) Give recorded inhibition. Cn1cnc2c(/C=C/c3ccccc3)ncnc21
A) 0

Q) Consider the compound Fc1ccc(Sc2ncnc3c2ncn3Cc2ccccc2)cc1 and give its recorded inhibition.
A) 1

Q) Identify measured inhibition associated with Cn1cnc2c(Sc3ccccc3)ncnc21
A) 0

Q) Return inhibition for the following compound: c1ccc(Cc2[nH]cnc3ncnc2-3)cc1
A) 0

Q) Give the reported value of inhibition for this record: Cn1c(Br)nc2c(Sc3ccccc3)ncnc21
A) 1

Q) Provide one value: measured inhibition of c1ccc(C[n+]2c[nH]c3ncncc32)cc1
A) 9

Q) Please supply the value of reported inhibition for the item COc1ncnc2ncn(Cc3ccc(F)cc3)c12
A) 0

Q) Fill in inhibition for record c1ccc(-[n+]2c[nH]c3ncncc32)cc1
A) 0

Q) # return recorded inhibition for entry Fc1ccc(Cn2cnc3c(Sc4ccc(F)cc4)ncnc32)cc1
A) 0

Q) Answer with the recorded inhibition of Cn1cnc2c(SCc3ccccc3)ncnc21 only.
A) 4

Q) Provide measured inhibition value, entry: Fc1ccc(Cn2cnc3c(Sc4ccccc4)ncnc32)cc1
A) 13

Q) Kindly indicate its recorded inhibition. Item: Fc1ccc(C[n+]2c[nH]c3ncncc32)cc1
A) 8

Q) Provide only the value of recorded inhibition for Cn1c(-c2ccc([S+](C)[O-])cc2)nc2c(Sc3ccccc3)ncnc21 (stereo not drawn)
A) 4

Q) Provide only the value of recorded inhibition for Nc1ncnc2c1ncn2Cc1ccccc1
A) 0

Q) Recall and state the measured inhibition for Cn1cnc2c(Nc3ccccc3)ncnc21 .
A) 0

Q) Recall and state the measured inhibition for Cn1c(-c2ccccc2)nc2c(Sc3ccccc3)ncnc21 .
A) 42

Q) Return inhibition (reported value) for this compound: c1ccc(Sc2[nH]cnc3nccc2-3)cc1
A) 0
